Tested on: KRAS-mutant PDC tumor spheroid with HUVEC/MSC, viability
Assay: Anticancer human tumor 327498-153-R-J2-PDC patient-derived uterine carcinosarcoma cell line growth inhibition [KRAS2]
Settings: curve of first compound; second compound 1 µM
pIC50: −log10 of the molar value.
observation.type: pIC50

COC(=O)c1ccc2c(C(=Nc3ccc(N(C)C(=O)CN4CCN(C)CC4)cc3)c3ccccc3)c(O)[nH]c2c1 + CNCc1ccccc1-c1csc(C(C)Nc2nc(C)nc3cc(OC)c(OC)cc23)c1 :: 6.82
COc1cc(Nc2ncc3c(n2)-c2ccc(Cl)cc2C(c2c(F)cccc2OC)=NC3)ccc1C(=O)O + CNCc1ccccc1-c1csc(C(C)Nc2nc(C)nc3cc(OC)c(OC)cc23)c1 :: > 7.50
Cn1nccc1Nc1nccc(-c2cc3c(s2)C(C)(C)N(CCN2CCOCC2)C3=O)n1 + C=CC(=O)N1CCN(c2nc(OCC3CCCN3C)nc3c2CCN(c2cccc4cccc(C)c24)C3)CC1CC#N :: > 7.50
COc1cc(Nc2ncc3c(n2)-c2ccc(Cl)cc2C(c2c(F)cccc2OC)=NC3)ccc1C(=O)O + C=CC(=O)N1CCN(c2nc(=O)n(-c3c(C)ccnc3C(C)C)c3nc(-c4c(O)cccc4F)c(F)cc23)C(C)C1 :: > 7.50
CCNC(=O)CC1N=C(c2ccc(Cl)cc2)c2cc(OC)ccc2-n2c(C)nnc21 (stereo not given) + C=CC(=O)N1CCN(c2nc(OCC3CCCN3C)nc3c2CCN(c2cccc4cccc(C)c24)C3)CC1CC#N :: > 7.50
CC1COCCN1c1cc(-c2ccnn2C)c2ccnc(-c3ccn[nH]3)c2n1 (stereo not given) + COc1cc2nc(C)nc(NC(C)c3cc(N)cc(C(F)(F)F)c3)c2cc1OC1CCOC1 :: 7.81
CC(=O)OC12COC1CC(O)C1(C)C(=O)C(O)C3=C(C)C(OC(=O)C(O)C(NC(=O)OC(C)(C)C)c4ccccc4)CC(O)(C(OC(=O)c4ccccc4)C21)C3(C)C (stereo not given) + CC1OCC2(CCN(c3cnc(Sc4ccnc(N)c4Cl)c(N)n3)CC2)C1N :: > 8.00
CC1(C)CCC(CN2CCN(c3ccc(C(=O)NS(=O)(=O)c4ccc(NCC5CCOCC5)c([N+](=O)[O-])c4)c(Oc4cnc5[nH]ccc5c4)c3)CC2)=C(c2ccc(Cl)cc2)C1 + C=CC(=O)N1CCN(c2nc(OCC3CCCN3C)nc3c2CCN(c2cccc4cccc(C)c24)C3)CC1CC#N :: > 7.50

Would you mind telling me what pIC50 value was observed for CN(C)C/C=C/C(=O)Nc1cc2c(Nc3ccc(F)c(Cl)c3)ncnc2cc1O[C@H]1CCOC1 + CNCc1ccccc1-c1csc(C(C)Nc2nc(C)nc3cc(OC)c(OC)cc23)c1 ?
< 7.00

// returns reported pIC50 for input CC1OCC2(CCN(c3cnc(Sc4ccnc(N)c4Cl)c(N)n3)CC2)C1N (stereo not given) + C=CC(=O)N1CCN(c2nc(OCC3CCCN3C)nc3c2CCN(c2cccc4cccc(C)c24)C3)CC1CC#N
> 7.50

###

Test system: KRAS-mutant PDC tumor spheroid with HUVEC/MSC, viability
Test: Anticancer human tumor 327498-153-R-J2-PDC cell line growth inhibition [KRAS2];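 note: spheroids exposed to agents for seven days before reading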;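 for viability, T/C: 100% = DMSO vehicle wells so lower means fewer viable cells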
Conditions: second compound 1 µM; first compound 3.16 µM; stronger effect = lower value
// boundary case: viability, T/C equal to 30% maps to false; strictly smaller maps to true

CC(C)NCC(C(=O)N1CCN(c2ncnc3c2C(C)CC3O)CC1)c1ccc(Cl)cc1 (stereo not given) + CC1OCC2(CCN(c3cnc(Sc4ccnc(N)c4Cl)c(N)n3)CC2)C1N :: true
CCNC(=O)CC1N=C(c2ccc(Cl)cc2)c2cc(OC)ccc2-n2c(C)nnc21 (stereo not given) + COc1cc2nc(C)nc(NC(C)c3cc(N)cc(C(F)(F)F)c3)c2cc1OC1CCOC1 :: true
COc1cc2nccc(Oc3ccc(NC(=O)C4(C(=O)Nc5ccc(F)cc5)CC4)cc3)c2cc1OC + CC1OCC2(CCN(c3cnc(Sc4ccnc(N)c4Cl)c(N)n3)CC2)C1N :: true

Is it true that viability, T/C reported for CC1OCC2(CCN(c3cnc(Sc4ccnc(N)c4Cl)c(N)n3)CC2)C1N (stereo not given) + CNCc1ccccc1-c1csc(C(C)Nc2nc(C)nc3cc(OC)c(OC)cc23)c1 is less than 30%?
false

Does the reported viability, T/C of the following compound sit strictly below 30%? Cn1nccc1Nc1nccc(-c2cc3c(s2)C(C)(C)N(CCN2CCOCC2)C3=O)n1 + COc1cc2nc(C)nc(NC(C)c3cc(N)cc(C(F)(F)F)c3)c2cc1OC1CCOC1
false
